# SYSTEM TESTED: cholesterol ester transfer protein (CETP) (Homo sapiens)
# Construct: CETP is obtained from human plasma in partially purified form
# METHOD DESCRIPTION: CETP inhibition test: transfer of 3H-cholesterol ester from human HD lipoproteins to biotinylated LD lipoproteins (SPA)
# REPORTED CONDITIONS: human plasma CETP, 18 h, 37° C.
OBSERVED PROPERTY: IC50 (nM)

// known answers, use as guide
COMPOUND | SYSTEM TESTED | IC50 [nM]
CC1Cc2nc(C3CCCC3)c(C(F)c3ccc(C(F)(F)F)cc3)c(-c3ccc(F)cc3)c2C(O)C1 (single isomer, unassigned) | cholesterol ester transfer protein (CETP) (Homo sapiens) | 6
OC1CC2(CCC2)Cc2nc(C3CCCC3)c(C(F)c3ccc(C(F)(F)F)cc3)c(-c3ccc(F)cc3)c21 (stereo not drawn) | cholesterol ester transfer protein (CETP) (Homo sapiens) | 1.5
CC(C)c1nc2c(c(-c3ccc(F)cc3)c1C(F)c1ccc(C(F)(F)F)cc1)C(O)CC1(CC1)C2 (single isomer, unassigned) [Example 312] | cholesterol ester transfer protein (CETP) (Homo sapiens) | 60
OC1CC2(CC2)Cc2nc(C3CCCC3)c(C(F)c3ccc(C(F)(F)F)cc3)c(-c3ccc(F)cc3)c21 (single isomer, unassigned) | cholesterol ester transfer protein (CETP) (Homo sapiens) | 50

[A] OC1CC2(CCCC2)Cc2nc(C3CCCC3)c(C(F)c3ccc(C(F)(F)F)cc3)c(-c3ccc(F)cc3)c21 (single isomer, unassigned)
[B] CC(C)c1nc2c(c(-c3ccc(F)cc3)c1C(F)c1ccc(C(F)(F)F)cc1)C(O)CC1CC21 (single isomer, unassigned)
# compare IC50 for A vs B ; return the one with the smaller value Give the label under which the chosen entry appears.
A
(A: 0.2 nM, B: 800 nM)

###

# SYSTEM TESTED: cholesterol ester transfer protein (CETP) (Homo sapiens, UniProt P11597)
# Construct: CETP is obtained from human plasma in partially purified form; from tissue; host or cells: human plasma
# Sequence (P11597 18-493): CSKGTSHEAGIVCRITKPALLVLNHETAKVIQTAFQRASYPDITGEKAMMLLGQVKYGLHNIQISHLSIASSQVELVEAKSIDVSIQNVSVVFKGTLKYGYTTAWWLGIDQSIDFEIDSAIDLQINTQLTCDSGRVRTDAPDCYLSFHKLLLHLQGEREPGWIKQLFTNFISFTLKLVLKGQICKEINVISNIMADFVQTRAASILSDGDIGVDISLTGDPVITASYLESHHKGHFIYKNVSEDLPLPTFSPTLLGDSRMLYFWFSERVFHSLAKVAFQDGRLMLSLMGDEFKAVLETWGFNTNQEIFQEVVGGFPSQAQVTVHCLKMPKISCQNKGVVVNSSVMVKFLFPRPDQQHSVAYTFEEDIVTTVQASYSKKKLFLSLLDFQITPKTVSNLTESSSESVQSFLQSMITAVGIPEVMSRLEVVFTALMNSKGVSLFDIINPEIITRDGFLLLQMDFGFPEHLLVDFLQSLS
# METHOD DESCRIPTION: CETP inhibition test: transfer of 3H-cholesterol ester from human HD lipoproteins to biotinylated LD lipoproteins (SPA)
# Format: biochemical
# REPORTED CONDITIONS: human plasma CETP, 18 h, 37° C.
OBSERVED PROPERTY: IC50 (nM)

COMPOUND | SYSTEM TESTED | IC50, nM
CC(C)c1nc2c(c(-c3ccc(F)cc3)c1C(F)c1ccc(C(F)(F)F)cc1)C(O)CC(C)(C)C2 (single isomer, unassigned) | cholesterol ester transfer protein (CETP) (Homo sapiens, UniProt P11597) | 60

[I] CC1(C)Cc2nc(C3CCCC3)c(C(F)c3ccc4c(c3)OC(F)(F)O4)c(-c3ccc(F)cc3)c2C(O)C1 (single isomer, unassigned)
[II] CC(C)c1nc2c(c(-c3ccc(F)cc3)c1C(F)c1ccc(C(F)(F)F)cc1)C(O)CC1(CCCC1)C2 (single isomer, unassigned)
[III] CC1(C)Cc2nc(C3CCCC3)c(C(N=[N+]=[N-])c3ccc(C(F)(F)F)cc3)c(-c3ccc(F)cc3)c2C(O)C1 (centres unmarked)
[IV] CC(C)c1nc2c(c(-c3ccc(F)cc3)c1C(F)c1ccc(C(F)(F)F)cc1)C(O)CC1(CC1)C2 (single isomer, unassigned) [Example 313]
I would appreciate it if you could sort these 4 compounds by IC50, starting from the smallest number. List the labels, following the order given in the request.
IV, II, I, III
(IV: 0.2 nM, II: 30 nM, I: 60 nM, III: 750 nM)
